- System: SNB-75
- Assay notes: NCI tumour cell line growth inhibition, 48 h
Calls of active or inactive are those of the source. Rule as the data show it: active = GI50 up to about 1.1 µM and inactive = higher.
Reported GI50 values follow for various molecules
Observation type: GI50

[[record]]
molecule = "CCOC(=O)CNC(=O)NC12CC3CC(CC(C3)C1)C2"
assay_result = "110 µM (inactive)"

[[record]]
molecule = "O=C1CCSC(=S)N1c1ccc(Br)c(Cl)c1"
assay_result = "25.5 µM (inactive)"

[[record]]
molecule = "O=C1c2ccccc2/N=C(/c2cc3c(cc2Cl)Sc2nccn2S3(=O)=O)OS(=O)(=O)N1c1ccccc1"
assay_result = "7.4 µM (inactive)"

[[record]]
molecule = "COC12OCCN(CCO)C1=CC(=O)C1(C)N=NC(C)C12 (stereo not given)"
assay_result = "> 100 µM (inactive)"

[[record]]
molecule = "C[n+]1[se]c2ccccc2c1Cl"
assay_result = "17.6 µM (inactive)"

[[record]]
molecule = "O=C(C1OC1c1ccc(Br)cc1O)C12CC3CC(CC(C3)C1)C2 (stereo not given)"
assay_result = "14.5 µM (inactive)"

[[record]]
molecule = "CC(=O)O.CN1CCN(CN2C(=O)C3C4C=CC(C3C2=O)C2C3C(=O)N(CN5CCN(C)CC5)C(=O)C3C42)CC1 (stereo not given)"
assay_result = "23.3 µM (inactive)"

[[record]]
molecule = "CC(=O)Oc1ccc(C(c2ccc(OC(C)=O)cc2)c2ccccn2)cc1"
assay_result = "28.5 µM (inactive)"

[[record]]
molecule = "O=C(CC(O)(c1ccccc1)c1ccc(Cl)cc1)NC(=O)c1ccccc1O (stereo not given)"
assay_result = "6.44 µM (inactive)"

[[record]]
molecule = "Cc1cc(NC(=O)C2C3C=CC(O3)C2C(=O)O)no1 (stereo not given)"
assay_result = "> 100 µM (inactive)"


###

- System: DU-145
- Assay notes: NCI tumour cell line growth inhibition, 48 h
Calls of active or inactive are those of the source. Cut-off read from the data, not from the text of the source: active = GI50 up to about 1.1 µM and inactive = higher.
Items are presented alongside their recorded GI50.
Observation type: GI50

[[record]]
compound = "CC1=C2C(=O)c3ccccc3C(=O)[C@H]2C[C@@H](N2CCCC2=O)O1"
observation_type = "GI50"
assay_result = "26.9 µM (inactive)"

[[record]]
compound = "C=C1C(=O)OC2/C=C(\\CO)C(OC(C)=O)CC(O)/C(C)=C/C(OC(=O)C(C)CC)C12 (centres undefined)"
observation_type = "GI50"
assay_result = "19.8 µM (inactive)"

[[record]]
compound = "FC(F)=C(c1ccc(-c2ccc(Cl)cc2)cc1)C(F)(F)F"
observation_type = "GI50"
assay_result = "18.7 µM (inactive)"

[[record]]
compound = "O=[N+]([O-])c1cc(-c2nnc(C34CC5CC(CC(C5)C3)C4)o2)cc([N+](=O)[O-])c1"
observation_type = "GI50"
assay_result = "33 µM (inactive)"

[[record]]
compound = "CC(C)=C[C@@H]1C[C@H](n2cc(C)c(=O)[nH]c2=O)ON1CCO"
observation_type = "GI50"
assay_result = "> 100 µM (inactive)"

[[record]]
compound = "CC#C[C@]1(O)CCC2[C@@H]3CCC4=CC(=O)CCC4=C3[C@@H](c3ccc(N(C)C)cc3)C[C@@]21C (some centres undefined)"
observation_type = "GI50"
assay_result = "22.1 µM (inactive)"

[[record]]
compound = "COc1cc2c(cc1OC)-c1cc3cc(OC)c(OC)cc3c(=O)n1CC2"
observation_type = "GI50"
assay_result = "4.57 µM (inactive)"

[[record]]
compound = "CCOc1ccc(/N=N/c2ccc3cc(/C(C)=N/NC(=O)/C(C#N)=C\\c4ccc(N(CCC#N)CCC#N)cc4)c(=O)oc3c2)cc1"
observation_type = "GI50"
assay_result = "> 10 µM (inactive)"

[[record]]
compound = "CC(C)(C)[C@@H]1NC(=O)CN1C(=O)OCc1ccccc1"
observation_type = "GI50"
assay_result = "> 100 µM (inactive)"


From: ChEMBL document CHEMBL1201862
